- Test system: subgenomic genotype 1a replicon cell line
- test-summary: HCV replicon assay, genotype 1a
- Format: cell-based, HCV genotype 1a
- experimental-parameters: Hepatitis C virus
Can you tell me EC50 for the items I'm about to list?
Only the number, expressed in nM, is required.

// recorded EC50 for CNC(=O)c1c2cc(C3CC3)c(N(CCCO)S(C)(=O)=O)cc2nn1-c1ccc(Br)cc1 : 210

// recorded EC50 for CNC(=O)c1c2cc(C3CC3)c(N(CCCNC(=O)c3cnn(C)c3C)S(C)(=O)=O)cc2nn1-c1ccc(Br)cc1 : 570

// recorded EC50 for CNC(=O)c1c2cc(C3CC3)c(N(CCCO)S(C)(=O)=O)cc2nn1-c1ccc(Nc2ccccc2F)cc1 : 50

// recorded EC50 for CNC(=O)c1c2cc(C3CC3)c(N(CCC3COC(C)(C)OC3)S(C)(=O)=O)cc2nn1-c1ccc(Cl)cc1 : 280

// recorded EC50 for CNC(=O)c1c2cc(C3CC3)c(N(CCCN3CCCCC3)S(C)(=O)=O)cc2nn1-c1ccc(Oc2ccc(F)cc2)cc1 : 2920

// recorded EC50 for CCCC(=O)NCCCN(c1cc2nn(-c3ccc(Br)cc3)c(C(=O)NC)c2cc1C1CC1)S(C)(=O)=O : 280

// recorded EC50 for CNC(=O)c1c2cc(C3CC3)c(N(CCCNC(=O)c3ccccc3)S(C)(=O)=O)cc2nn1-c1ccc(Br)cc1 : 20

* * *

- measured-target: 1b (BK) NS5bΔ21 (Hepatitis C virus genotype 1b (isolate BK) (HCV), UniProt P26663)
- Sequence (P26663 2420-2989): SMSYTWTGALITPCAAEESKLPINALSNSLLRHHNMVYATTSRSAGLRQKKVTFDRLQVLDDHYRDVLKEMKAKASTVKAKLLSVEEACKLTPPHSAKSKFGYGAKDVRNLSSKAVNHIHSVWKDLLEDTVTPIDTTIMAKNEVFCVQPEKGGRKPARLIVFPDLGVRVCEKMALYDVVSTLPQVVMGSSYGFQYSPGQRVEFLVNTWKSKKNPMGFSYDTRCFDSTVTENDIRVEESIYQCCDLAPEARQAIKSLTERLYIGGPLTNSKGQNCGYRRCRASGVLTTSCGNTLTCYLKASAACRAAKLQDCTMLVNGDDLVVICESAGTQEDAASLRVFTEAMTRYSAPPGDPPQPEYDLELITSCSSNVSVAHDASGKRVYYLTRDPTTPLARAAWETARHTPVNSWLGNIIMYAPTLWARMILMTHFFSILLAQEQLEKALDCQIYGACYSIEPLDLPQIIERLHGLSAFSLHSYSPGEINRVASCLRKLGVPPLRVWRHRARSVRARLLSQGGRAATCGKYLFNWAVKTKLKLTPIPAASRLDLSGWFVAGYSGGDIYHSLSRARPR
- test-summary: HCV polymerase inhibition assay, genotype 1b
- Format: biochemical, HCV genotype 1b (BK)
- experimental-parameters: genotype 1b; read-out: 1b NS5b polymerase IC50
attribute-measured: IC50 (µM)
Only the number, expressed in µM, is required.

// recorded IC50 for CNC(=O)c1c2cc(C3CC3)c(N(CCCNC(=O)C3CCC3)S(C)(=O)=O)cc2nn1-c1ccc(Br)cc1 : 0.18

// recorded IC50 for CNC(=O)c1c2cc(C3CC3)c(N(CCC3COC(C)(C)OC3)S(C)(=O)=O)cc2nn1-c1ccc(Cl)cc1 : 0.09

// recorded IC50 for CCN(c1cc2nn(-c3ccc(Nc4ccc(F)cc4)cc3)c(C(=O)NC)c2cc1C1CC1)S(C)(=O)=O : 0.11

// recorded IC50 for CCN(c1cc2nn(-c3ccc(Oc4ccc(F)cc4)nc3)c(C(=O)NC)c2cc1C1CC1)S(C)(=O)=O : 1.55

// recorded IC50 for CNC(=O)c1c2cc(C3CC3)c(N(CCCO)S(C)(=O)=O)cc2nn1-c1ccc(Nc2ccc(F)cc2)cc1 : 0.04

// recorded IC50 for CNC(=O)c1c2cc(C3CC3)c(N(CCCO)S(C)(=O)=O)cc2nn1-c1ccc(Br)cc1 : 0.17

// recorded IC50 for CNC(=O)c1c2cc(C3CC3)c(N(CCCNC(=O)c3ccnc(OC)c3)S(C)(=O)=O)cc2nn1-c1ccc(Br)cc1 : 0.28

* * *

- System: subgenomic genotype 1a replicon cell line
- test-summary: HCV replicon assay, genotype 1a
- Type: cell-based, HCV genotype 1a
- Protocol: A genotype 1b (Con 1) subgenomic replicon cell line based on Blight et al., Science 2000 290: 1972-1974, modified to express a Renilla luciferase reporter gene was used to assess antiviral activity of test compounds. Cell cultures were maintained in a sub-confluent state in DMEM with glutamine, 10% heat-inactivated foetal bovine serum (FBS) and G418 (Geneticin®). For assay, cells were seeded at a density of 7000 cells/well into 96 well tissue culture trays in culture media lacking G418. […]
attribute-measured: EC50 (nM)
Only the number, expressed in nM, is required.

Known value: subgenomic genotype 1a replicon cell line EC50 of the molecule C=CCN(c1cc2nn(-c3ccc(Br)cc3)c(C(=O)NC)c2cc1C1CC1)S(C)(=O)=O equals 160

Known value: subgenomic genotype 1a replicon cell line EC50 of the molecule CNC(=O)c1c2cc(C3CC3)c(N(CCCNC(=O)C3CCC3)S(C)(=O)=O)cc2nn1-c1ccc(Br)cc1 equals 80

Known value: subgenomic genotype 1a replicon cell line EC50 of the molecule CNC(=O)c1c2cc(C3CC3)c(N(CCC3COC(C)(C)OC3)S(C)(=O)=O)cc2nn1-c1ccc(Br)cc1 equals 70

Known value: subgenomic genotype 1a replicon cell line EC50 of the molecule CNC(=O)c1c2cc(C3CC3)c(N(CCCO)S(C)(=O)=O)cc2nn1-c1ccc(Cl)cc1 equals 300
